Parameter: folding stability dG. Scope: all listed entries.
B1: EEHEE_rd4_0763 (parent)
chain: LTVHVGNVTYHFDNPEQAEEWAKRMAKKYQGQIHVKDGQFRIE

- Variants of: B1
- EXPERIMENT: folding stability dG (cDNA display proteolysis); higher = more stable
- SETUP CONDITIONS: PBS, room temperature

CHANGES: L1I
folding stability dG [kcal/mol]: 1.7
//
CHANGES: H4T
folding stability dG [kcal/mol]: 1.85
//
CHANGES: L1Q
folding stability dG [kcal/mol]: 1.45
//
CHANGES: E19F
folding stability dG [kcal/mol]: 2.3
//
CHANGES: V3D
folding stability dG [kcal/mol]: 0.189
//
CHANGES: K27V
folding stability dG [kcal/mol]: 1.6
//
CHANGES: P15V
folding stability dG [kcal/mol]: 1.71
//
CHANGES: E43Q
folding stability dG [kcal/mol]: 1.29
//
CHANGES: R41T
folding stability dG [kcal/mol]: 2.02
//
CHANGES: P15S
folding stability dG [kcal/mol]: 1.69
//
CHANGES: G38N
folding stability dG [kcal/mol]: 1.36
//
CHANGES: F40N
folding stability dG [kcal/mol]: 1.14
//
CHANGES: I33H
folding stability dG [kcal/mol]: 0.852
//
CHANGES: I42R
folding stability dG [kcal/mol]: 0.894
